Tested on: Tetranychus urticae
Settings: foliar, 192 h, read-out: control of Tetranychus urticae
value.kind: pest or weed control at 200 ppm

[in] # get_value(readout='pest or weed control at 200 ppm', item= CCc1ncnc(N2C3CCC2CC(=NOCc2ccncc2)C3)c1Cl [Example 5.6] )
[out] ≥ 80%

[in] I'd like to know its pest or weed control at 200 ppm. The compound in question is Fc1cc(C(F)(F)F)ccc1CON=C1CC2CCC(C1)N2c1ncnc2ccccc12 [Example 5.135]
[out] ≥ 80%

[in] So what's the measured pest or weed control at 200 ppm for this one? CCc1ncnc(N2C3CCC2CC(=NOCc2ccc(OC)cc2)C3)c1Cl [Example 5.16]
[out] ≥ 80%

[in] Please give the measured pest or weed control at 200 ppm for this compound: FC(F)(F)c1ccc(OC2C[C@H]3CC[C@@H](C2)N3c2ccnc3c(Cl)cccc23)nc1 (stereo partly shown) [Example 2.206]
[out] ≥ 80%

###

value.kind: melting point (°C)
Hi! Could you send only the number? It should be in °C, unit omitted.

Below: 3 compounds and their reported melting point.
* N#Cc1c(Cl)nsc1N1[C@@H]2CC[C@H]1CC(Oc1ccc(C(F)(F)F)cn1)C2 (stereo partly shown) | 157
* N#Cc1sc(N2[C@@H]3CC[C@H]2CC(Oc2cc(C(F)(F)F)ccn2)C3)nc1C(F)(F)F (stereo partly shown) | 129
* N#Cc1sc(N2[C@@H]3CC[C@H]2CC(Oc2ccc(C(F)(F)F)cn2)C3)nc1C(F)(F)F (stereo partly shown) | 135

Shift focus to the following entry.
[in] What value of melting point has been recorded for this entry: Cn1cc(C(=O)N2[C@@H]3CC[C@H]2CC(Oc2ccc(C(F)(F)F)cn2)C3)c(C(F)(F)F)c1 (stereo partly shown) [2.223]
[out] 153

###

Listing of recorded melting point by entry.
The reply should be a number in °C, with the unit left off.

* Cc1cc(C(F)(F)F)cc(ON=C2CC3CCC(C2)N3c2ncnc3sccc23)n1 | 167
* FC(F)(F)c1ccnc(OC2C[C@H]3CC[C@@H](C2)N3c2ncnc3ccsc23)c1 (stereo partly drawn) | 211

[in] // lookup melting point for CCc1ncnc(N2C3CCC2CC(CC(=O)O)C3)c1Cl (stereo not drawn)
[out] 109

[in] Consider the molecule Fc1cccc2c(N3[C@@H]4CC[C@H]3CC(Oc3cccc(C(F)(F)F)n3)C4)ccnc12 (stereo partly drawn) and give its measured melting point.
[out] 133

[in] I am curious: what melting point value has been reported for Cc1cc(N2[C@@H]3CC[C@H]2CC(Oc2ccc(C(F)(F)F)cn2)C3)n2ncnc2n1 (stereo partly drawn) ?
[out] 240

###

Quick reference: melting point of the listed items.
Note: unit °C is implicit; provide only the numeric part.

• FC(F)(F)c1ccnc(OC2C[C@H]3CC[C@@H](C2)N3c2ncnc3sccc23)c1 (stereo partly shown) = 172
• Cc1nsc(N2[C@@H]3CC[C@H]2CC(Oc2ccc(C(F)(F)F)cn2)C3)c1Cl (stereo partly shown) = 46
• FC(F)(F)c1cccc(OC2C[C@H]3CC[C@@H](C2)N3c2cc(Cl)ncn2)n1 (stereo partly shown) = 136

Okay, now this compound:
[in] Param item = CCc1ncnc(N2C3CCC2CC(CC(N)=O)C3)c1Cl (stereo not shown) ; retrieve measured melting point.
[out] 101
